Reported values of Kd for individual entries
TEST_TARGET: von Willebrand factor (VWF) (Homo sapiens, UniProt P04275 P04275:764-2813)
ASSAY_NOTES: filter; Bmax 89%; 2 mM CaCl2, 37 C
PROTOCOL_CONDITIONS: tags: factor VIII free human purified VWF, Haematologic Technologies Inc; label: 5'-32P
MEASUREMENT_LABEL: Kd (nM)

BINDER	MEASUREMENT_LABEL	ASSAY_RESULT
ACGAACUGCCCUCGAUCGACGCACAGACGU (ssRNA, 2'-F C9,C10,C11,C20,C22; ribo G21; rest 2'-OMe; 3' idT) [T59 vrt26]	Kd	18
ACGAACUGCCCUCUAUUUCAUUUGACGCACAGACGU (ssRNA, 2'-F C2,U7,C9,C10,C11,U12,C26,C28,C34,U36; ribo A1,G3,G8,A25,G27,A29,G35; rest 2'-OMe; 3' idT) [T93 vrt1]	Kd	0.8
